assay_remarks: Particle size and polydispersity of LNP containing pro-drug (dynamic light scattering)
Type: physicochemical
condition_parameters: LNP; pro-drug concentration 20 %
measure: Size (nm)
Lab note: write values as number then unit, every time.

>>> val("CCCCC/C=C\\C/C=C\\CCCCCCCC(=O)O[C@@H](C/C=C\\CCCCCCCCOC(=O)CCC(=O)OCC(=O)[C@@]1(O)[C@H](C)C[C@H]2[C@@H]3CCC4=CC(=O)C=C[C@]4(C)[C@@]3(F)[C@@H](O)C[C@@]21C)CCCCCC")
"48 nm"
>>> val("CCCCCC[C@H](C/C=C\\CCCCCCCCOC(=O)c1ccccc1OC(C)=O)OC(=O)CCCCC")
"42 nm"
>>> val("CCCCCC[C@H](C/C=C\\CCCCCCCCOC(=O)CCC(=O)OCC(=O)[C@@]1(O)[C@H](C)C[C@H]2[C@@H]3CCC4=CC(=O)C=C[C@]4(C)[C@@]3(F)[C@@H](O)C[C@@]21C)OC(=O)CCCCC")
"45 nm"
>>> val("CCCCCCCCC(OC(=O)CCCCC)C(CCCCCCCC(=O)OCC(=O)[C@@]1(O)[C@H](C)C[C@H]2[C@@H]3CCC4=CC(=O)C=C[C@]4(C)[C@@]3(F)[C@@H](O)C[C@@]21C)OC(=O)CCCCC (some centres unmarked)")
"39 nm"

Could you now look at the following compound, please?
Size (nm) lookup needed for `CCCCC/C=C\C/C=C\CCCCCCCC(=O)O[C@@H](C/C=C\CCCCCCCCOC(=O)CC/C(C)=C/Cc1c(O)c2c(c(C)c1OC)COC2=O)CCCCCC` , thanks.
41 nm

---

Measured Encapsulation Efficiency (%), listed per entry.
assay_remarks: Encapsulation efficiency / incorporation of pro-drug in LNP
Assay type: physicochemical
condition_parameters: LNP containing 10 mol % conjugate; primary PC-lipid DMPC
A complete answer gives the number and then names the unit.

Example entries and their recorded answers appear below.
>>> val("CCCCCC[C@H](C/C=C\\CCCCCCCCOC(=O)CCC(=O)OCC(=O)[C@@]1(O)[C@H](C)C[C@H]2[C@@H]3CCC4=CC(=O)C=C[C@]4(C)[C@@]3(F)[C@@H](O)C[C@@]21C)OC(=O)CCCCC [INT-D034]")
"100%"
>>> val("CCCCCCCCCCCCCCCCCC(=O)O[C@@H](C/C=C\\CCCCCCCCOC(=O)CCC(=O)OCC(=O)[C@@]1(O)[C@H](C)C[C@H]2[C@@H]3CCC4=CC(=O)C=C[C@]4(C)[C@@]3(F)[C@@H](O)C[C@@]21C)CCCCCC [INT-D050]")
"97%"
>>> val("CCCCCCCCCCCC(=O)O[C@@H](C/C=C\\CCCCCCCCOC(=O)CCC(=O)OCC(=O)[C@@]1(O)[C@H](C)C[C@H]2[C@@H]3CCC4=CC(=O)C=C[C@]4(C)[C@@]3(F)[C@@H](O)C[C@@]21C)CCCCCC [INT-D046]")
"93%"
>>> val("CCCCC/C=C\\C/C=C\\CCCCCCCC(=O)O[C@@H](C/C=C\\CCCCCCCCOC(=O)CCC(=O)OCC(=O)[C@@]1(O)[C@H](C)C[C@H]2[C@@H]3CCC4=CC(=O)C=C[C@]4(C)[C@@]3(F)[C@@H](O)C[C@@]21C)CCCCCC [INT-D045]")
"99%"

Suppose we examine the molecule CC/C=C\C/C=C\C/C=C\CCCCCCCC(=O)O[C@@H](C/C=C\CCCCCCCCOC(=O)CCC(=O)OCC(=O)[C@@]1(O)[C@H](C)C[C@H]2[C@@H]3CCC4=CC(=O)C=C[C@]4(C)[C@@]3(F)[C@@H](O)C[C@@]21C)CCCCCC [INT-D049] ; what Encapsulation Efficiency (%) value has been reported?
94%

Which Encapsulation Efficiency (%) reading was recorded for the molecule CCCCCC[C@H](C/C=C\CCCCCCCCOC(=O)CCC(=O)OCC(=O)[C@@]1(O)[C@H](C)C[C@H]2[C@@H]3CCC4=CC(=O)C=C[C@]4(C)[C@@]3(F)[C@@H](O)C[C@@]21C)OC(C)=O [INT-D047] ?
100%
